biological target: T1, HLA-DR4 (HLA-DRB1*04:01) (human); experiment: competition ELISA vs biotin-HA 306-318;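 further: HLA and competitor incubated 24 to 72 h, maximal signal taken from wells lacking competitor, background from wells lacking HLA molecule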
T1 construct: mature; purified from homozygous EBV-transformed lymphoblastoid cells with antibody L243
No end group written: not given here.
Categorized via relative affinity: low = under 60, middle = from 60 up to 500, high = 500 and over

Consider the worked cases shown below.
[[record]]
binder = "EDLCQAFSDVILAVN-NH2 [CCNB1 140-154]"
answer_label = "high"

[[record]]
binder = "LAVNDVDAEDGADPN-NH2 [CCNB1 151-165]"
answer_label = "high"

[[record]]
binder = "PEIGDFAFVTDNTYT-NH2 [CCNB1 264-278]"
answer_label = "low"

[[record]]
binder = "MELTMLDYDMVHFPP-NH2 [CCNB1 327-341]"
answer_label = "low"

[[record]]
binder = "LSYTEESLLPVMQHL-NH2 [CCNB1 369-383]"
answer_label = "low"

[[record]]
binder = "LALKILDNGEWTPTL-NH2 [CCNB1 351-365]"
answer_label = "high"


Asked: Pick a category. Item: SDVILAVNDVDAEDG-NH2 [CCNB1 147-161]
Given back: low

Asked: Pick a category. Item: NKYATSKHAKISTLP-NH2 [CCNB1 402-416]
Given back: high

Asked: Pick a category. Item: QAVRPKYLLGREVTG-NH2 [CCNB1 185-199]
Given back: middle
